target: Brd2(2) (Homo sapiens, UniProt P25440); construct: Plasmids of the eight single BET bromodomain constructs Brd2(1), Brd2(2), Brd3(1), Brd3(2); His6 (N); made in house; host or cells: E. coli BL21(DE3); assay: ITC reverse titration of protein into compound; format: binding; settings: Kd Brd2(2), ITC 30° C., 1% DMSO
Sequence (P25440 344-453 limits assumed): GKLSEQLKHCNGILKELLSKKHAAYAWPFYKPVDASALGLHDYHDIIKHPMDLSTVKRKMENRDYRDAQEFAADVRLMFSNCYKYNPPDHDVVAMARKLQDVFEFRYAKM
readout.name: Kd
Put your answer as a value accompanied by its unit after it.

molecule="COC(=O)[C@H](CC1CC1)[C@@H]1N=C(c2ccc(Cl)cc2)c2cc(OC)ccc2-n2c(C)nnc21 (racemic)" experimental_system="Brd2(2) (Homo sapiens, UniProt P25440)" readout_name=Kd assay_value="3320 nM"

Now, please, on to the next molecule.
I would be grateful if you could share the reported Kd for CCC[C@@H](C(=O)OC)[C@@H]1N=C(c2ccc(Cl)cc2)c2cc(OC)ccc2-n2c(C)nnc21 (racemic) .
2390 nM

###

target: Brd2(2)*(Trp370Phe) (Homo sapiens, UniProt P25440, W370F); construct: Plasmids of the eight single BET bromodomain constructs Brd2(1), Brd2(2), Brd3(1), Brd3(2); His6 (N); experiment: ITC reverse titration of protein into compound
Sequence (P25440 344-453 W370F limits assumed): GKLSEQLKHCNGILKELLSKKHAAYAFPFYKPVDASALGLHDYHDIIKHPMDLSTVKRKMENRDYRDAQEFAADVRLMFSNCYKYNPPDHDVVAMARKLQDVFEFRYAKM
readout.name: Kd

I would be grateful if you could share the reported Kd for COC(=O)CC1N=C(c2cccc3[nH]ccc23)c2cc(OC)ccc2-n2c(C)nnc21 (stereo not shown) [Compound 18] .
~300 nM

###

target: Brd4(1) (Homo sapiens, UniProt O60885); construct: Plasmids of the eight single BET bromodomain constructs Brd2(1), Brd2(2), Brd3(1), Brd3(2), Brd4(1), Brd4(2), Brdt(1) and Brdt(2); His6 (N); made in house; host or cells: E. coli BL21(DE3); experiment: DSF thermal shift; format: binding; settings: wild type
Each record is given Met if its reported ΔTm Brd4(1) is strictly below 1 K. Records at or above 1 K are given Not met.

Worked examples, 2 molecules total:
molecule="CCC[C@@H](C(=O)OC)[C@@H]1N=C(c2ccc(Cl)cc2)c2cc(OC)ccc2-n2c(C)nnc21 (racemic)" label="Not met"
molecule="COC(=O)[C@H](CC1CC1)[C@@H]1N=C(c2ccc(Cl)cc2)c2cc(OC)ccc2-n2c(C)nnc21 (racemic)" label="Not met"

Please indicate whether the reported ΔTm Brd4(1) of COC(=O)[C@@H](CC1CC1)[C@@H]1N=C(c2ccc(Cl)cc2)c2cc(OC)ccc2-n2c(C)nnc21 (racemic) is strictly below 1 K.
Met

// next record CCC[C@H](C(=O)OC)[C@@H]1N=C(c2ccc(Cl)cc2)c2cc(OC)ccc2-n2c(C)nnc21 (racemic)
Met

// next record CC[C@@H](C(=O)OC)[C@@H]1N=C(c2ccc(Cl)cc2)c2cc(OC)ccc2-n2c(C)nnc21 (racemic)
Not met

// next record CC[C@H](C(=O)OC)[C@@H]1N=C(c2ccc(Cl)cc2)c2cc(OC)ccc2-n2c(C)nnc21 (racemic)
Met

###

target: Brd2(1) (Homo sapiens); construct: Plasmids of the eight single BET bromodomain constructs Brd2(1), Brd2(2), Brd3(1), Brd3(2); His6 (N); made in house; host or cells: E. coli BL21(DE3); assay: DSF thermal shift; format: binding; conditions: wild type
Sequence (P25440 74-180 limits assumed): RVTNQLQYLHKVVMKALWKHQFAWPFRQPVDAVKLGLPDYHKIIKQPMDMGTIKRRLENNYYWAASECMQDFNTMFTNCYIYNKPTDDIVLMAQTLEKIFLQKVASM
Let's look at some compounds and their measured Thermal stabilisation brd2(1).
Number in °C, nothing else.

Some compounds with known Thermal stabilisation brd2(1) results, for comparison:
compound="COC(=O)[C@H](C)[C@@H]1N=C(c2ccc(Cl)cc2)c2cc(OC)ccc2-n2c(C)nnc21 (racemic)" assay_value=3.2
compound="COC(=O)CC1N=C(c2cc(C)ccc2C)c2cc(OC)ccc2-n2c(C)nnc21 (racemic)" assay_value=1.8

Now, please, on to the next compound.
I would be grateful if you could share the reported Thermal stabilisation brd2(1) for COC(=O)CC1(C)N=C(c2ccc(Cl)cc2)c2cc(OC)ccc2-n2c(C)nnc21 (racemic) .
2.2
